// values below are MIC; system is C. albicans

compoundString: C[C@@H](n1cnc2cc(F)ccc2c1=O)[C@](O)(Cn1cncn1)c1ccc(F)cc1F
qualifyingSign: ≤
MIC, µg/mL: 0.03
--
compoundString: C[C@@H](n1cnc2cc(S(=O)(=O)c3ccccc3)ccc2c1=O)[C@](O)(Cn1cncn1)c1ccc(F)cc1F
qualifyingSign: =
MIC, µg/mL: 0.31
--
compoundString: CC(=O)ONC(=N)c1ccc(-c2cc3ncn([C@H](C)[C@](O)(Cn4cncn4)c4ccc(F)cc4F)c(=O)c3s2)cc1
qualifyingSign: =
MIC, µg/mL: 0.31
--
compoundString: C[C@@H](n1cnc2cc(Oc3ccc(Cl)cc3)ccc2c1=O)[C@](O)(Cn1cncn1)c1ccc(F)cc1F
qualifyingSign: ≤
MIC, µg/mL: 0.03
--
compoundString: C[C@@H](n1cnc2cc(N(C)C)c(F)cc2c1=O)[C@](O)(Cn1cncn1)c1ccc(F)cc1F
qualifyingSign: =
MIC, µg/mL: 0.15
--
compoundString: C[C@@H](n1cnc2cc(C#N)ccc2c1=O)[C@](O)(Cn1cncn1)c1ccc(F)cc1F
qualifyingSign: ≤
MIC, µg/mL: 0.03
--
compoundString: Cc1ccc2ncn([C@H](C)[C@](O)(Cn3cncn3)c3ccc(F)cc3F)c(=O)c2c1
qualifyingSign: ≤
MIC, µg/mL: 0.03
